# MEASURED_TARGET: Endonuclease 8-like 2 (Homo sapiens) (UniProt Q969S2);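 also: fluorescence at 594 nm reports NEIL2 cutting and release of a quenched double-stranded DNA oligo substrate, reduced signal read as inhibition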
# Sequence (whole entry): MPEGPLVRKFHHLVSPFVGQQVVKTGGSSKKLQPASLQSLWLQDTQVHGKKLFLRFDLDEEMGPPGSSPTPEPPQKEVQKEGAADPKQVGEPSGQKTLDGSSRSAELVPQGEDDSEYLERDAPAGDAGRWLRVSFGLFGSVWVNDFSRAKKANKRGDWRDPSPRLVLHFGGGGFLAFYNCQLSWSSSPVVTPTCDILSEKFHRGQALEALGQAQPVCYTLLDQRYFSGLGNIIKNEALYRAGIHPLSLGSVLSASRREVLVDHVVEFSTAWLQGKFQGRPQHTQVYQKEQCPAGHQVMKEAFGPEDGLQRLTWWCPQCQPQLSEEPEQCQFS
# DETAILS: Compound Concentration 10.0 uM, Hit No
# Description: Inhibition of NEIL2 by quantifying inhibition of NEIL2-mediated cleavage and dissociation of quenched duplex DNA oligonucleotides, measured as fluorescence at 594 nm.
QUANTITY_NAME: inhibition (%)
Use % as the unit, but write only the number.

# count of solved cases: 5
| SMILES | MEASURED_TARGET | READOUT_UNITS | inhibition |
| --- | --- | --- | --- |
| CCCCCCCCCCCCCCC[C@@H](O)[C@@H](N)COP(=O)(O)O | Endonuclease 8-like 2 (Homo sapiens) (UniProt Q969S2) | % | 4.76 |
| CNC(=O)c1ccc(Nc2ncc(C(F)(F)F)c(NCc3nccnc3N(C)S(C)(=O)=O)n2)cc1 | Endonuclease 8-like 2 (Homo sapiens) (UniProt Q969S2) | % | -7.12 |
| Cc1c(-c2cc(-c3ccccc3Cl)no2)cnn1C1CCNCC1 | Endonuclease 8-like 2 (Homo sapiens) (UniProt Q969S2) | % | -0.35 |
| CC[N+](CC)(CC)CCOc1ccc(/C=C/c2ccccc2)cc1 | Endonuclease 8-like 2 (Homo sapiens) (UniProt Q969S2) | % | 0.669 |
| CCCCCCCCCCCCC/C=C/[C@@H](O)[C@@H](N)COP(=O)([O-])OCC[N+](C)(C)C | Endonuclease 8-like 2 (Homo sapiens) (UniProt Q969S2) | % | -4.94 |

Here's the next entry for you.
Data point: C[C@@H](N)Cc1c[nH]cn1 ; inhibition = -9.22

====

# MEASURED_TARGET: Adenine DNA glycosylase (Homo sapiens);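 also: human MUTYH activity read as 594 nm fluorescence from cleavage and release of a quenched DNA duplex, coupled with APE1 for strand incision, lower signal meaning inhibition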
# DETAILS: Compound Concentration 10.0 uM, Hit No
# Description: Inhibition of MUTYH by quantifying inhibition of MUTYH-mediated cleavage and dissociation of quenched duplex DNA oligonucleotides, measured as fluorescence at 594 nm. To generate a functional strand incision and increase turn-over this assay is coupled to APE1.
Property: inhibition; scope: individual molecules
Use % as the unit, but write only the number.

| MOLECULE | inhibition [%] |
| --- | --- |
| COC(=O)c1cc2c(cn1)[nH]c1ccccc12 | 41.5 |
| O=C1c2ccc(Nc3ccc(F)cc3F)cc2CCc2ccc(OC[C@H](O)CO)cc21 | -4.85 |
| C[C@@](Cc1c[nH]c2ccccc12)(NC(=O)Nc1ccc([N+](=O)[O-])cc1)C(=O)NCC1(c2ccccn2)CCCCC1 | 3.6 |
| CC(=O)N1CCC(c2ccc(C(=O)NC(=N)N)cc2C(F)(F)F)CC1 | 0.114 |
| CC(C)NC(=O)N1CC[C@H](NC2=Nc3cc(F)ccc3N(CC(F)F)c3ccc(Cl)cc32)C1 | 13.1 |
| CSCC[C@H](NC(=O)[C@H](Cc1ccccc1)NC(=O)[C@H](Cc1c[nH]cn1)NC(=O)CNC(=O)[C@@H](NC(=O)[C@H](C)NC(=O)[C@H](Cc1c[nH]c2ccccc12)NC(=O)[C@H](CC(C)C)NC(=O)[C@H](CC(N)=O)NC(=O)CN)[C@@H](C)O)C(N)=O | 11.4 |
| CCOC(=O)c1ncn2c1[C@@H]1CCCN1C(=O)c1cc(OC)ccc1-2 | -3.58 |

Here's the next entry for you.
Data point: C[S+]([O-])c1ccc(-c2nc(-c3ccc(F)cc3)c(-c3ccncc3)[nH]2)cc1 (stereo not drawn) ; inhibition = 13.8
